- systemTested: T1, DVL2 416-511 DEP (domain begin residue: 416, domain end residue: 511), O14641
- T1 chain: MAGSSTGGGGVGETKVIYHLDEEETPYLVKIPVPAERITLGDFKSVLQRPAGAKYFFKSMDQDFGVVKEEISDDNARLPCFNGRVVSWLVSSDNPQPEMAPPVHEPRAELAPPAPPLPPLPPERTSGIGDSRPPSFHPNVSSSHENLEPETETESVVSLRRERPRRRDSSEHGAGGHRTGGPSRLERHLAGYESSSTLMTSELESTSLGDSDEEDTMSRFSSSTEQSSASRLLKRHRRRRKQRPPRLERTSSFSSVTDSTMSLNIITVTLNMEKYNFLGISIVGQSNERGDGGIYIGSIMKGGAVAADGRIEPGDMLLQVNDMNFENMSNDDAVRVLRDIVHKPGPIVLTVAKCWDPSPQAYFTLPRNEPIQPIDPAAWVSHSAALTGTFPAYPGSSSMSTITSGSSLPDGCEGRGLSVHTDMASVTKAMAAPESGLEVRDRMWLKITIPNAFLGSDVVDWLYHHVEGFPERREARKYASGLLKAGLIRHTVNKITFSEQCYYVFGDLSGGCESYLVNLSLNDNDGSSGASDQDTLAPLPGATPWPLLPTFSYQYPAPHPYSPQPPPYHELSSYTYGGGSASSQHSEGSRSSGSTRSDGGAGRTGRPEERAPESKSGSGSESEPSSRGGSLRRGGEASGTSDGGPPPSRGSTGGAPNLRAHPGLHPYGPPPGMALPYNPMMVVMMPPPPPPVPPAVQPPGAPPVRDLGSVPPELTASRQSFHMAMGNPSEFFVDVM
- testProtocol: phage ELISA signal ratio (GST-PRM binding over GST background); higher = stronger binding of peptide-phage to the PRM
phage ELISA signal ratio values by entry
The answer should be written as a number, with no unit following it.

Look over these answered cases.
YWFWNPEIMDAQYMPV    7.02
YQPDMRMQDGKWYWII    20.4
IYWDWEDGYIYEHQPE    18.2
QAVPMWQDEHGYWWWN    33.3

Ask: Look up and state reported phage ELISA signal ratio for EMWYWDAVQGVPYKQG
Result: 23.9

Ask: Dear colleague, please send me the reported phage ELISA signal ratio for MWYWDPGENTAIWVEQ when you can.
Result: 22.1

Ask: Recall and state the measured phage ELISA signal ratio for VFWENQHWMQDLNPEW .
Result: 26.1
